System: Fibrinogen (Alexa647-labelled)
assay-remarks: fibrinogen binders on compound microarrays, profiling panel, artefact control for SMM control-protein annotation, biochemical, small-molecule microarray, 635/667 nm fluorescence (AID 1131);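 also: z-score merges 667 nm fluorescence with per-spot signal-to-noise over triplicate slides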
test-settings: fibrinogen-A647 binding fluorescence, higher = more signal
Reported composite z-score is given for each of the following molecules.
Respond using a number only.

COc1cccc([C@@H]2Oc3ccc(OC)cc3C(=O)[C@H]2O)c1 0.823
COc1cccc([C@H]2Oc3ccc(OC)cc3C(=NOC[C@@H](C)[C@H](OCc3ccccc3)C(C)C)[C@@H]2O)c1 0.069
CC(CCN1CCCc2nc(C)c(C)cc21)=NO[C@@H](C)c1cc(-c2c(C)cc(C)cc2C)no1 0.745

Input "C=Cc1ccc([C@H]2N[C@H](C(=O)O)CC[C@@H]2C)cc1" . Output composite z-score: -0.719

----------
Test system: Lefty1
assay-remarks: Lefty1 binders on small-molecule microarrays, primary screen, biochemical, small-molecule microarray, 635/667 nm fluorescence (AID 1139)
test-settings: small-molecule microarray binding, fluorescence 635/667; higher = more signal
We use 0.7 as the dividing line for composite z-score: on or above the line is t, below is f.

molecule	target	category-label
CC(=O)OC[C@H]1O[C@H](C#Cc2ccccc2)C=C[C@@H]1OC(C)=O	Lefty1	f
Cn1c(=O)n2n(c1=O)[C@H]1[C@H](O)[C@@H]3O[C@@H]3C(=O)[C@H]1CC2	Lefty1	f
COCCNC(=O)OCC1CCCC2(CC(OC(=O)NCc3ccc4c(c3)OCO4)CC(CCC(=O)N[C@@H](C)C(=O)OC)O2)O1 (stereo partly specified)	Lefty1	t

Decide: is the reported value of composite z-score for "CC(CCN1CCc2nc(-c3ccccc3)c(-c3ccccc3)cc2C1)=NOC[C@@H](O)[C@H]1O[C@@H]2OC(C)(C)O[C@@H]2[C@H]1O" equal to or greater than 0.7? t

Please indicate if the recorded composite z-score for "CCOC(=O)NN=C1C[C@@H](O)[C@@H](O)[C@@H]2[C@@H]3C(=O)N([C@@H](C)c4ccccc4)C(=O)[C@@H]3CC[C@@H]12" meets or exceeds 0.7. t

----------
assay-remarks: binders of probe aFGF10 on microarray, primary screen, stem cell growth factor project, biochemical, small-molecule microarray, fluorescence 635/667 (AID 1071);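 also: score merges 667 nm spot intensity and signal to noise from triplicate slides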
test-settings: higher = more signal
Reported composite z-score values for the following molecules.
Enter a number only.

# count of solved cases: 3
CO[C@H]1COC(=O)[C@H](C)NC(=O)CC=C[C@@H](C)[C@H](OC)COC(=O)[C@@H](OCc2ccccc2)C=C[C@@H]1C -0.299
COc1ccc(O[C@H]2C=C[C@@H](c3ccccc3)O[C@@H]2COC(=O)CCC(C)=NOC[C@@H](O)[C@H]2O[C@@H]3OC(C)(C)O[C@@H]3[C@H]2O)cc1 0.497
O=C1[C@H]2[C@H]3[C@H](O)[C@H](O)CC(=NO[C@@H]4O[C@H](CO)[C@@H](O)[C@H](O)[C@H]4O)[C@H]3CC[C@H]2C(=O)N1c1cccc(Oc2ccccc2)c1 0.435

Entry under test: "COC(=O)C1=C(C)N(Cc2ccccc2)[C@]23O[C@](C(=O)OC)(C(=O)N2[C@@H]1c1ccccc1)C(C(=O)OC)=C3C(=O)OC" . Its composite z-score was 1.1

----------
assay-remarks: Plasmodium falciparum growth inhibition, primary screen, strain 3D7, DAPI fluorescence, 100 nL (AID 1184);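 also: parasites grown inside human red blood cells in medium with human serum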
test-settings: P. falciparum 3D7 growth, 3 d, higher = more signal
z-score values for the compounds below.
Reply with the value as a number alone.

See these solved cases before continuing.
compound	z-score
CC(C)=CCCC(C)=CCON=C1C[C@@H](O)[C@@H](O)[C@@H]2[C@@H]3C(=O)N(c4cccc(Oc5ccccc5)c4)C(=O)[C@@H]3CC[C@@H]12	-1.58
COC(=O)CC=C[C@@H](C)[C@@H](C=NOC[C@@H](O)[C@H]1O[C@@H]2OC(C)(C)O[C@@H]2[C@H]1O)NS(=O)(=O)c1ccc(C)cc1	1.4

// z-score value for "CC(C)=CCCC(C)=CCON=C1C[C@@H](O)[C@@H](O)[C@@H]2[C@@H]3C(=O)N(C(C)(C)C)C(=O)[C@@H]3CC[C@@H]12" : -1.34

Summary for this compound, "CC(C)CCN1CCc2nc(COc3ccccc3)c3c(c2C1)CO[C@@H](C)C3" : z-score is 0.329

Lab note: "CCN1C(=O)[C@H]2[C@H]3[C@H](O)[C@H](O)CC(=O)[C@@H]3CC[C@H]2C1=O" gave z-score of 1.51

Entry "O=C1[C@H]2[C@H]3[C@H](O)[C@H](O)CC(=NOC[C@@H](O)COCc4ccco4)[C@H]3CC[C@H]2C(=O)N1C[C@@H]1CCCO1" , z-score reported as 0.523

Reported z-score for "COc1ccc(O[C@H]2C=C[C@@H](c3ccccc3)O[C@@H]2COC(=O)CCC(C)=NOC[C@@H](O)[C@H]2O[C@@H]3OC(C)(C)O[C@@H]3[C@H]2O)cc1" was 0.651

The measured values listed here are drawn from PubChem BioAssay.
